biological target: Cannabinoid receptor 2 (Homo sapiens); test: Displacement of [3H]CP-55,940 from human recombinant CB2R expressed in HEK-293 cells after 90 mins by liquid scintillation counting
Examples of compounds with documented Ki follow.
Express your answer as a number followed by its unit.

C[C@H]1CC[C@H](NC(=O)c2cc3cc(Br)cnc3n(Cc3ccc(F)cc3)c2=O)CC1 : 1.12 nM
CC1CCC(NC(=O)c2cc3cccnc3n(CCCCCO)c2=O)CC1 (stereo not drawn) : 3.6 nM

# input for lookup
Summary for this compound, CC1CCC(NC(=O)c2cc3cccnc3n(CCCCCCF)c2=O)CC1 (stereo not drawn) : Ki is 1.46 nM

###

target: Cannabinoid receptor 2 (Homo sapiens, UniProt P34972); experiment: Displacement of [3H]CP-55,940 from human recombinant CB2R expressed in HEK-293 cells after 90 mins by liquid scintillation counting
Sequence (P34972 whole entry): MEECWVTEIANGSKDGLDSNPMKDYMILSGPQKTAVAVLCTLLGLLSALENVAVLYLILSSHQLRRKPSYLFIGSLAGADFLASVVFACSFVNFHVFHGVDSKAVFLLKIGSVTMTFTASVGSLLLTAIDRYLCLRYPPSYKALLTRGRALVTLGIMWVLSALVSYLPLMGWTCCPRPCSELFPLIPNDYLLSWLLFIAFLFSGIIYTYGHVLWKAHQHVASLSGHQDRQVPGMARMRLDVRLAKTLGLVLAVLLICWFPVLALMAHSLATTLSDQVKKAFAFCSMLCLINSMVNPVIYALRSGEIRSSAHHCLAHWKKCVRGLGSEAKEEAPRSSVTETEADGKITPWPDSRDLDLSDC
pKi: −log10 of the molar value.
Would you mind labelling by pKi? At or over 9 is Yes, under is No.

Exam item: decide whether the reported pKi for CCOC(=O)CCCn1c(=O)c(C(=O)NC2CCC(C)CC2)cc2cccnc21 (centres undefined) is at least 9. No

###

molecular target: Cannabinoid receptor 2 (Homo sapiens, UniProt P34972); assay: Antagonist activity at human recombinant CB2R expressed in U2OS cells assessed as inhibition of WIN-55212-induced beta-arrestin-GFP binding to receptor preincubated for 15 mins by fluorescent microscopy; type: cell-based
// reported pIC50 for each item listed
Give only the number. pIC50 is defined as minus log10 of concentration in molar units.

CC1CCC(NC(=O)c2cc3cc(Br)cnc3n(Cc3ccc(F)cc3)c2=O)CC1 (stereo not drawn) : 7.50
COc1ccc(-c2cnc3c(c2)cc(C(=O)NC2CCC(C)CC2)c(=O)n3CCN2CCOCC2)cc1 (stereo not drawn) : 7.27

Okay, next one:
Input CC1CCC(NC(=O)c2cc3cc(Br)cnc3n(CCN3CCOCC3)c2=O)CC1 (stereo not drawn) . Output pIC50: 7.49

###

Catalogue of Ki values
biological target: Cannabinoid receptor 1 (Homo sapiens); assay: Displacement of [3H]CP-55,940 from human recombinant CB1R expressed in HEK-293 cells after 90 mins by liquid scintillation counting
Sequence (P21554 whole entry): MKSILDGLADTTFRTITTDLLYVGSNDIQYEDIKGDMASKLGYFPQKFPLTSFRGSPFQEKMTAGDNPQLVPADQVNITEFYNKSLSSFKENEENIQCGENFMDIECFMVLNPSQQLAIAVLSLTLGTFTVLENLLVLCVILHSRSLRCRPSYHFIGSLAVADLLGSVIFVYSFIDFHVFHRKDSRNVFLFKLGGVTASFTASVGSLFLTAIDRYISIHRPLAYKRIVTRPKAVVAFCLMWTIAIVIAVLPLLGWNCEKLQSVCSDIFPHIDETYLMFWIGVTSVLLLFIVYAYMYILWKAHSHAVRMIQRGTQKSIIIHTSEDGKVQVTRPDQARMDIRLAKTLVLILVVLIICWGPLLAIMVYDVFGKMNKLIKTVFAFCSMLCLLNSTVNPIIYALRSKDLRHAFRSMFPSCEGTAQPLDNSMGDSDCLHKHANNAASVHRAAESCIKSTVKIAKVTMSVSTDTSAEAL
Hi! Could you send only the number? It should be in nM, unit omitted.

Check out these entries, answers already filled in.
COc1ccc(-c2cnc3c(c2)cc(C(=O)NC2CCC(C)CC2)c(=O)n3Cc2ccc(F)cc2)cc1 (configuration not stated) : 3260
CC1CCC(NC(=O)c2cc3cc(Br)cnc3n(Cc3ccc(F)cc3)c2=O)CC1 (configuration not stated) : 96.1
CC1CCC(NC(=O)c2cc3cccnc3n(CCCCF)c2=O)CC1 (configuration not stated) : 1010

The reported Ki of the molecule CC1CCC(NC(=O)c2cc3cc(Br)cnc3n(CCN3CCOCC3)c2=O)CC1 (configuration not stated) was 750

The measured Ki associated with CC1CCC(NC(=O)c2cc3cc(-c4cccs4)cnc3n(CCN3CCOCC3)c2=O)CC1 (configuration not stated) reads 32.7

Lab book: Ki of CC1CCC(NC(=O)c2cc3cccnc3n(CCCCCF)c2=O)CC1 (configuration not stated) noted as 22.6

molecule "C[C@H]1CC[C@@H](NC(=O)c2cc3cc(-c4cccs4)cnc3n(Cc3ccc(F)cc3)c2=O)CC1" , Ki observed: 472

// Ki lookup, molecule = CC1CCC(NC(=O)c2cc3cc(-c4ccc(F)cc4)cnc3n(CCN3CCOCC3)c2=O)CC1 (configuration not stated) , result: 66.7
